Where these numbers come from: patent US8691867B2

metric: melting point

CN(CC1COc2ccccc2O1)S(N)(=O)=O (racemic)	97 to 98 °C
NS(=O)(=O)NCC1CCc2ccccc2O1 (centres unmarked)	100 to 101 °C
NS(=O)(=O)NCCC1COc2ccccc2O1 (centres unmarked)	101 to 103 °C
NS(=O)(=O)NC[C@H]1COc2cc(Cl)c(Cl)cc2O1	119 to 121 °C

Look up melting point for this molecule: CN(C)S(=O)(=O)NCC1COc2ccccc2O1 (racemic)
76 to 78 °C
